Recorded pEC50 by entry
# target-system: hEP2/Gqs5 (Homo sapiens)
# Construct: expressed in transfected cells; host or cells: HEK-293(EBNA)
# procedure-details: FLIPR calcium signal, hEP2
# Assay type: cell-based
# particulars: FLIPR Ca2+ signal, HEK-293(EBNA); read-out: FUNCTIONAL EC50 HEP2
pEC50: −log10 of the molar value.
test-readout: pEC50

>>> df
                                   compound  reading_qualifier  test_value
0  O=C(O)CCC/C=C\C[C@@H]1[C@@H](c2ccc(C3(O)CCC3)cc2)[C@H](O)C[C@H]1Cl                  =        6.29
1  CC(C)C(O)c1ccc([C@@H]2[C@@H](CCCCCCC(=O)O)[C@H](Cl)C[C@H]2O)cc1 (some centres unmarked)                  <        5.00
2  O=C(O)CCCCCC[C@@H]1[C@@H](c2ccc3c(c2)CCC3)[C@H](O)C[C@H]1Cl                  =        6.09
3  O=C(O)CCC/C=C\C[C@H]1C(=O)C[C@@H](O)[C@@H]1c1ccc(C(O)C2CCCCC2)cc1 (some centres unmarked)                  <        5.00
4  Cc1ccc([C@H]2[C@H](O)CC(=O)[C@@H]2CCCCCCC(=O)O)cc1                  =        5.50
5  COC(=O)CCC/C=C\C[C@H]1C(=O)C[C@@H](O)[C@@H]1c1ccc(C(C)(C)C)cc1                  <        5.00
6  CC(C)(CO)c1ccc([C@H]2[C@H](O)CC(=O)[C@@H]2CCCCCCC(=O)O)cc1                  =        6.28
7  CC(C)(CO)c1ccc([C@@H]2[C@@H](C/C=C\CCCC(=O)O)[C@H](Cl)C[C@H]2O)cc1 [drawing 118]                  =        6.76

---

# target-system: hEP4/Gqs5 (Homo sapiens, UniProt P35408)
# Construct: expressed in transfected cells; host or cells: HEK-293(EBNA)
# Sequence (P35408 whole entry): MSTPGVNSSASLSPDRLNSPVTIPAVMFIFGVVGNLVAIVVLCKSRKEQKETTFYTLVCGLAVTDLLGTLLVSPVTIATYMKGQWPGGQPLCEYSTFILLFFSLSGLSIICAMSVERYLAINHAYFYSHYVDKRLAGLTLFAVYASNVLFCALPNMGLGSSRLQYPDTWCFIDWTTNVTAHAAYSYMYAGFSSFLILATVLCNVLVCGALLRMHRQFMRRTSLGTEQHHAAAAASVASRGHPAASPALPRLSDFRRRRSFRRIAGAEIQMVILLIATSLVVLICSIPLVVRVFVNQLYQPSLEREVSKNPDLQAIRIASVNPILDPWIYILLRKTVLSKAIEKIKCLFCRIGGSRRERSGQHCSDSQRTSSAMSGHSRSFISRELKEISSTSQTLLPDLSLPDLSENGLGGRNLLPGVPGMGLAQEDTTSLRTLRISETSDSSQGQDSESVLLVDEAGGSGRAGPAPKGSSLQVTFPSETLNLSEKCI
# procedure-details: FLIPR calcium signal, hEP4
# Format: cell-based
# particulars: read-out: FUNCTIONAL Ca2+ EC50 HEP4
pEC50: −log10 of the molar value.
Recorded pEC50 by entry
test-readout: pEC50

>>> print(df.to_string())
                                   compound                             target_system  test_value
0  CCCCCC(O)c1ccc([C@H]2CCC(=O)[C@@H]2CCCc2ccc(C(=O)O)s2)cc1 (some centres unmarked)  hEP4/Gqs5 (Homo sapiens, UniProt P35408)      < 5.00
1  CCCC1([C@@H](O)c2ccc([C@H]3CCC(=O)[C@@H]3C/C=C\CCCC(=O)O)cc2)CCC1 [drawing 194]  hEP4/Gqs5 (Homo sapiens, UniProt P35408)      < 5.00

---

# target-system: hEP1 (Homo sapiens)
# Construct: expressed in transfected cells; host or cells: HEK-293(EBNA)
# Sequence (P34995 whole entry): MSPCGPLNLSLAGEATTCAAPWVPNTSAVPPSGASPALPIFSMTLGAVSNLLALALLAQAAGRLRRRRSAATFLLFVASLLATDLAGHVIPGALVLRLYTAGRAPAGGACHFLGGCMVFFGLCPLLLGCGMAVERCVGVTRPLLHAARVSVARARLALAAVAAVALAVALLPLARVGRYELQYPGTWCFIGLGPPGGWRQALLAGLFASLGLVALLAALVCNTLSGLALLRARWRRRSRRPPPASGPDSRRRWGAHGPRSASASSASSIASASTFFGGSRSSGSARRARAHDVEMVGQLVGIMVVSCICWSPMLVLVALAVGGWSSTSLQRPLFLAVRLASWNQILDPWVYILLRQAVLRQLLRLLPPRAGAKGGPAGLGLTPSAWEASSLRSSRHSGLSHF
# procedure-details: FLIPR calcium signal, hEP1
# Type: cell-based
# particulars: FLIPR Ca2+ signal, HEK-293(EBNA); read-out: FUNCTIONAL EC50 HEP1
test-readout: EC50

>>> print(df.to_string())
                                   compound  test_value
0  CC(C)(C)c1ccc([C@@H]2[C@@H](C/C=C\CCCC(=O)O)[C@H](Cl)C[C@H]2O)cc1     > 10 µM
1  Cc1ccc([C@H]2[C@H](O)CC(=O)[C@@H]2CCCCCCC(=O)O)cc1     1.87 µM
2  CC(C)(C)c1ccc([C@@H]2[C@@H](CCCCCCC(=O)O)[C@H](Cl)C[C@H]2O)cc1 [drawing 70]     > 10 µM
3  CC(C)(C)c1ccc([C@H]2[C@H](O)CC(=O)[C@@H]2C/C=C\CCCC(=O)O)cc1     > 10 µM
4  O=C(O)CCCCCC[C@@H]1[C@@H](c2ccc3c(c2)CCC3)[C@H](O)C[C@H]1Cl    0.221 µM
5  CC(C)(C)c1ccc([C@H]2[C@H](O)CC(=O)[C@@H]2CCCCCCC(=O)O)cc1     > 10 µM

---

# target-system: hEP2/Gqs5 (Homo sapiens)
# Construct: expressed in transfected cells; host or cells: HEK-293(EBNA)
# procedure-details: FLIPR calcium signal, hEP2
# Format: cell-based
# particulars: unit inferred; other columns of the table in nM; read-out: EP2 data flipr EC50
Recorded EC50 by entry
test-readout: EC50 (nM)

In [3]: df
Out[3]:
                                   compound             target_system  test_value
0  CCCCCCC(O)c1ccc(N2C(=O)CC[C@@H]2CCCc2ccc(C(=O)O)s2)cc1 (single isomer, unassigned) [drawing 183]  hEP2/Gqs5 (Homo sapiens)          16
1  CCCC(O)c1ccc(N2C(=O)CC[C@@H]2COCc2ccc(C(=O)O)s2)cc1 (some centres unmarked)  hEP2/Gqs5 (Homo sapiens)         426
2  CCCCCC(O)c1ccc(N2C(=O)CC[C@@H]2CCCc2ccc(C(=O)O)s2)cc1 (single isomer, unassigned) [drawing 178]  hEP2/Gqs5 (Homo sapiens)           6
3  CCCCCC(O)c1ccc(N2C(=O)CC[C@@H]2CCCc2ccc(C(=O)O)s2)cc1 (some centres unmarked) [drawing 145]  hEP2/Gqs5 (Homo sapiens)           5
4  CC(C)C(O)c1ccc(N2C(=O)CC[C@@H]2COCc2ccc(C(=O)O)o2)cc1 (some centres unmarked)  hEP2/Gqs5 (Homo sapiens)        7670
5  CCCCC(O)c1ccc(N2C(=O)CC[C@@H]2COCc2ccc(C(=O)O)s2)cc1 (some centres unmarked)  hEP2/Gqs5 (Homo sapiens)         212
6  CCCCCC(O)c1ccc(N2C(=O)CC[C@@H]2COCc2ccc(C(=O)O)s2)cc1 (single isomer, unassigned) [drawing 176]  hEP2/Gqs5 (Homo sapiens)          62
7  CCCCCC(=O)c1ccc(N2C(=O)CC[C@@H]2COCc2ccc(C(=O)O)s2)cc1  hEP2/Gqs5 (Homo sapiens)         215

---

Recorded EC50 by entry
# target-system: hEP2/Gqs5 (Homo sapiens, UniProt P43116)
# Construct: expressed in transfected cells; host or cells: HEK-293(EBNA)
# Sequence (P43116 whole entry): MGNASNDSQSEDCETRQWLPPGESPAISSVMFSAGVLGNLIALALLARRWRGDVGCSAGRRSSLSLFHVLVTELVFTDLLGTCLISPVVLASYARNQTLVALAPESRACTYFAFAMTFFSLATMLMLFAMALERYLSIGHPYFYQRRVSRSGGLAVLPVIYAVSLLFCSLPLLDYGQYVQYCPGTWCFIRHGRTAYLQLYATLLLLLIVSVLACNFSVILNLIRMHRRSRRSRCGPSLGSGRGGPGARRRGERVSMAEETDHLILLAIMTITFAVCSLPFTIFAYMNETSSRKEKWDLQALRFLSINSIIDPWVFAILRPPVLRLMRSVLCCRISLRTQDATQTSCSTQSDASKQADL
# procedure-details: FLIPR calcium signal, hEP2
# Assay type: cell-based
# particulars: unit inferred; other columns of the table in nM; read-out: EP2 data flipr EC50
test-readout: EC50 (nM)

>>> print(df.to_string())
                                   molecule                             target_system  test_value
0  CCCCCC(O)c1ccc(N2C(=O)CC[C@@H]2CCCc2ccc(C(=O)O)s2)cc1 (single isomer, unassigned) [drawing 150]  hEP2/Gqs5 (Homo sapiens, UniProt P43116)           6
1  CCCCCC(O)c1ccc(N2C(=O)CC[C@@H]2COc2ccc(C(=O)O)cc2)cc1 (stereo partly shown) [drawing 185]  hEP2/Gqs5 (Homo sapiens, UniProt P43116)        7280
2  CCC(O)c1ccc(N2C(=O)CC[C@@H]2COCc2ccc(C(=O)O)s2)cc1 (stereo partly shown)  hEP2/Gqs5 (Homo sapiens, UniProt P43116)        1810
3  CCCCCC(O)c1ccc(N2C(=O)CC[C@@H]2CCCc2ccc(C(=O)O)s2)cc1 (stereo partly shown) [drawing 173]  hEP2/Gqs5 (Homo sapiens, UniProt P43116)           5

---

# target-system: human EP2 receptors (Homo sapiens)
# Construct: expressed in transfected cells; host or cells: HEK 293
# Sequence (P43116 whole entry): as above
# procedure-details: Competition radioligand binding ([3H]PGE2), EP2
# particulars: unit inferred; read-out: EP2 data Ki
Recorded Ki by entry
test-readout: Ki (nM)

>>> df
                                   compound                       target_system  test_value
0  CCCCCC(O)c1ccc(N2C(=O)CC[C@@H]2COCc2ccc(C(=O)O)s2)cc1 (single isomer, unassigned) [drawing 177]  human EP2 receptors (Homo sapiens)         116
1  CCCCCCC(O)c1ccc(N2C(=O)CC[C@@H]2CCCc2ccc(C(=O)O)s2)cc1 (single isomer, unassigned) [drawing 183]  human EP2 receptors (Homo sapiens)          12
2  CCCCCCC(O)c1ccc(N2C(=O)CC[C@@H]2CCCc2ccc(C(=O)O)s2)cc1 (single isomer, unassigned) [drawing 156]  human EP2 receptors (Homo sapiens)           8

Data origin, for the record: patent US7799821B2
